- Tested on: Propionibacterium acnes NCTC 737
- Experiment Notes: MIC assay
- Assay type: cell-based
- Run Parameters: Cutibacterium acnes, NCTC737; P. acnes NCTC 737
Quantity: MIC

1. CCc1cc(Cc2cc(CC)cc(C(C)(C)C)c2O)c(O)c(C(C)(C)C)c1 [AO 425]: 7.8 µg/mL
2. CC(c1cc(C(C)(C)C)cc(C(C)(C)C)c1O)c1cc(C(C)(C)C)cc(C(C)(C)C)c1O [reference compound]: > 250 µg/mL
3. Cc1cc(Cc2cc(C)cc(C(C)(C)C)c2O)c(O)c(C(C)(C)C)c1 [AO 2246]: 3.9 µg/mL
4. CC(C)(C)c1cc(Cc2cc(C(C)(C)C)c(O)c(C(C)(C)C)c2)cc(C(C)(C)C)c1O [reference compound]: > 250 µg/mL
